These measurements were taken from PubChem BioAssay AID1159580.

- measurement_protocol: chemical genetic growth profiling, strain panel (AID 1159580);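 also: tested at 20 µM; growth read once vehicle control cultures reached saturation at 30 °C; 1 = growth at the plate median or of vehicle wells; lower values mean less growth of the strain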
- condition_label: S. cerevisiae deletion strains, growth OD, locus YBL061C, strain skt5, active compounds read low
Among all 5,500 compounds or so, about 2,000 (36%) were called active. Roughly 18% stayed inconclusive and do not appear here. Some of the results follow.
So I've got a bunch of compounds here, and I need their normalized growth values.
When you answer, write just the number.

Inquiry: Name the recorded normalized growth for CC[C@H](C)C(=O)O[C@H]1C[C@@H](C)C=C2C=C[C@H](C)[C@H](CC[C@@H]3C[C@@H](O)CC(=O)O3)[C@H]21 .
Reply text: 1

Inquiry: Okay, and CC[C@H](C)C(=O)O[C@H]1CCC=C2C=C[C@H](C)C(CCC3C[C@@H](O)CC(=O)O3)[C@H]21 (some centres undefined) ?
Reply text: 1.01

Inquiry: Okay, and O=C1NC(=O)C(=O)C(=O)N1 ?
Reply text: 0.984

Inquiry: Okay, and CCC(C)(C)C(=O)O[C@H]1C[C@@H](C)C=C2C=C[C@H](C)[C@H](CC[C@@H]3C[C@@H](O)CC(=O)O3)[C@H]21 ?
Reply text: 0.855
